binders and their reported OD450
# ASSAY_SYSTEM: Peptide 1: Biotin-…-[Tyr(PC)]-acid
# Sequence (peptide, as listed by the source): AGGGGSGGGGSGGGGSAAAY
# ASSAY_OVERVIEW: scFv ELISA
Reply with just the number (in OD450).

Example cases with answers are listed next.
BINDER	READOUT_UNIT	OBSERVED
PcOxP_DB02_C03 (scFv, V domains shown, scFv in periplasmic extract) VH: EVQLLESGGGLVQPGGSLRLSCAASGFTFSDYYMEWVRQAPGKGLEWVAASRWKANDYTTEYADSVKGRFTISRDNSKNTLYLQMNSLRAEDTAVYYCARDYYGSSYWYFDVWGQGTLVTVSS VL: DIVMTQSPDSLAVSLGERATINCTASESLYSSKHKVHYLAWYQQKPGQPPKLLIYGASNRYIGVPDRFSGSGSGTDFTLTISSLQAEDVAVYYCAQFYVYPLTFGGGTKVEIK	OD450	0.54
PcOxP_DB02_H10 (scFv, V domains shown, scFv in periplasmic extract) VH: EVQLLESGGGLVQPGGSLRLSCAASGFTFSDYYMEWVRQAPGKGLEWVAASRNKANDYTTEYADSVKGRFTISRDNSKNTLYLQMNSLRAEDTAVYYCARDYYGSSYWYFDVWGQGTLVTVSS VL: DIQMTQSPSSLSASVGDRVTITCTASESLYSSKHKVHYLAWYQQKPGKAPKLLIYGAGNRYIGVPSRFSGSGSGTDFTLTISSLQPEDFATYYCAQFYEYPLTFGGGTKVEIK	OD450	1.43
PcOxP_DB01_E06 (scFv, V domains shown, scFv in periplasmic extract) VH: EVQLLESGGGLVQPGGSLRLSCAASGFTFSDQYMEWVRQAPGKGLEWVAASRNKANDYTTEYADSVKGRFTISRDNSKNTLYLQMNSLRAEDTAVYYCARDYYGSSYWYFDLWGQGTLVTVSS VL: DIQMTQSPSSLSASVGDRVTITCTASESLYSSKHKVHYVAWYQQKPGKAPKLLIYGASNRYIGVPSRFSGSGSGTDFTLTISSLQPEDFATYYCAQFYYYPLTFGGGTKVEIK	OD450	0.68
PcOxP_DB03_A12 (scFv, V domains shown, scFv in periplasmic extract) VH: EVQLLESGGGLVQPGGSLRLSCAASGFTFSDGYMEWVRQAPGKGLEWVAASRNKANDYTTAYADSVKGRFTISRDNSKNTLYLQMNSLRAEDTAVYYCARDYYGSSYWYFDVWGQGTLVTVSS VL: DIVMTQSPDSLAVSLGERATINCTASESLYSSKHKVHYLAWYQQKPGQPPKLLIYGASNRYIGVPDRFSGSGSGTDFTLTISSLQAEDVAVYYCGQFYSYPLTFGGGTKVEIK	OD450	2.28
PcOxP_DB03_E03 (scFv, V domains shown, scFv in periplasmic extract) VH: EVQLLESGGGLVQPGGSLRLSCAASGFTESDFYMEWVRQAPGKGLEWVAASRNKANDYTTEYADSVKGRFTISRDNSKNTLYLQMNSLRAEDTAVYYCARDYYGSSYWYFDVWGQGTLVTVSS VL: DIVMTQSPDSLAVSLGERATINCKSSQSLLYSKNNVNYLAWYQQKPGQPPKLLIYGESNRYIGVPDRFSGSGSGTDFTLTISSLQAEDVAVYYCAQFYEYPLTFGGGTKVEIK	OD450	0.27
PcOxP_DB03_E01 (scFv, V domains shown, scFv in periplasmic extract) VH: EVQLLESGGGLVQPGGSLRLSCAASGFTFSDYYMEWVRQAPGKGLEWVAASRNKANDYTVEYADSVKGRFTISRDNSKNTLYLQMNSLRAEDTAVYYCARDYYGSSYWYFDVWGQGTLVTVSS VL: DIQMTQSPSSLSASVGDRVTITCTASESLYSSKHKVHYLAWYQQKPGKAPKLLIYGTSNRYIGVPSRFSGSGSGTDFTLTISSLQPEDFATYYCAQFYEYPLTFGGGTKVEIK	OD450	2.5
PcOxP_DB01_H01 (scFv, V domains shown, scFv in periplasmic extract) VH: EVQLLESGGGLVQPGGSLRLSCAASGFTFSSYYMEWVRQAPGKGLEWVAASRNKANLYTTEYADSVKGRFTISRDNSKNTLYLQMNSLRAEDTAVYYCARDYYGSSTWYFDVWGQGTLVTVSS VL: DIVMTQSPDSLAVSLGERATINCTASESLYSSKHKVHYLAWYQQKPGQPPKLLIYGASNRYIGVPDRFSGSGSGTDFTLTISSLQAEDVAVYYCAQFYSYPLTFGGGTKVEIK	OD450	0.82
PcOxP_DB01_B08 (scFv, V domains shown, scFv in periplasmic extract) VH: EVQLLESGGGLVQPGGSLRLSCAASGFTFSDSYMEWVRQAPGKGLEWVAASRNKANDYTTSYADSVKGRFTISRDNSKNTLYLQMNSLRAEDTAVYYCARDYYGSSYWYFDVWGQGTLVTVSS VL: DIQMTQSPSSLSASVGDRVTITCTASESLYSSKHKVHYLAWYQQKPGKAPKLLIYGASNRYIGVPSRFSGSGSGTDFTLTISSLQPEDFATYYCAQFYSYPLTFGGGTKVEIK	OD450	0.41
PcOxP_DB04_B12 (scFv, V domains shown, scFv in periplasmic extract) VH: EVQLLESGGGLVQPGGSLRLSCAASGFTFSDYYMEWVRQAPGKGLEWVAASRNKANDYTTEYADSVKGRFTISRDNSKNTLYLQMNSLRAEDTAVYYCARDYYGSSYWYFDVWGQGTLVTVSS VL: DIVMTQSPDSLAVSLGERATINCTASESLYSSKHKVHYLAWYQQKPGQPPKLLIYGASNRYIGVPDRFSGSGSGTDFTLTISSLQAEDVAVYYCAAFYSYPLTFGGGTKVEIK	OD450	0.13

Next, consider the following binder.
Which value of OD450 has been reported for PcOxP_DB02_A12 (scFv, V domains shown, scFv in periplasmic extract) VH: EVQLLESGGGLVQPGGSLRLSCAASGFTFSDDYMEWVRQAPGKGLEWVAASRNKANDYTTEYADSVKGRFTISRDNSKNTLYLQMNSLRAEDTAVYYCARDYQGSSYWYFDVWGQGTLVTVSS VL: DIQMTQSPSSLSASVGDRVTITCTASESLYSSKHKVHYLAWYQQKPGKAPKLLIYGAFNRYTGVPSRFSGSGSGTDFTLTISSLQPEDFATYYCAQFYTYPLTFGGGTKVEIK in the records?
0.2
